- Assay Details: paclitaxel prodrug loading and sizing of PEG-b-PCL micelles
- Assay type: physicochemical
- Measurement Conditions: DLS, PEG-PCL micelles prepared at 20% w/w drug
Diameter (intensity) values for the compounds below.
Return type: number; implicit unit nm.

Example entries begin here.
CCCCCCCCCCCCCCCC(=O)O[C@@H](C(=O)O[C@H]1C[C@@]2(O)[C@@H](OC(=O)c3ccccc3)[C@@H]3[C@]4(OC(C)=O)CO[C@@H]4C[C@H](O)[C@@]3(C)C(=O)[C@H](OC(C)=O)C(=C1C)C2(C)C)[C@@H](NC(=O)c1ccccc1)c1ccccc1 [Prodrug 5c, 2-palmitate-paclitaxel] ... 37
CCCCCCCCCCCCCCCC(=O)O[C@H]1C[C@H]2OC[C@@]2(OC(C)=O)[C@H]2[C@H](OC(=O)c3ccccc3)[C@]3(O)C[C@H](OC(=O)[C@H](O)[C@@H](NC(=O)c4ccccc4)c4ccccc4)C(C)=C([C@@H](OC(C)=O)C(=O)[C@]12C)C3(C)C [Prodrug 4c, 7-palmitate-paclitaxel] ... 44
CCCCCC(=O)O[C@@H](C(=O)O[C@H]1C[C@@]2(O)[C@@H](OC(=O)c3ccccc3)[C@@H]3[C@]4(OC(C)=O)CO[C@@H]4C[C@H](O)[C@@]3(C)C(=O)[C@H](OC(C)=O)C(=C1C)C2(C)C)[C@@H](NC(=O)c1ccccc1)c1ccccc1 [Prodrug 5a] ... 32
CCCCCCCCCCCC(=O)O[C@H]1C[C@H]2OC[C@@]2(OC(C)=O)[C@H]2[C@H](OC(=O)c3ccccc3)[C@]3(O)C[C@H](OC(=O)[C@H](O)[C@@H](NC(=O)c4ccccc4)c4ccccc4)C(C)=C([C@@H](OC(C)=O)C(=O)[C@]12C)C3(C)C [Prodrug 4b] ... 27
CCCCCCCCCCCC(=O)OC(C(=O)OC1CC2(O)C(OC(=O)c3ccccc3)C3C4(OC(C)=O)COC4CC(O)C3(C)C(=O)C(OC(C)=O)C(=C1C)C2(C)C)C(NC(=O)c1ccccc1)c1ccccc1 (stereo not drawn) [Prodrug 5b] ... 28

# evaluate next
Ask: Which measured Diameter (intensity) value corresponds to CCCCCC(=O)O[C@H]1C[C@H]2OC[C@@]2(OC(C)=O)[C@H]2[C@H](OC(=O)c3ccccc3)[C@]3(O)C[C@H](OC(=O)[C@H](O)[C@@H](NC(=O)c4ccccc4)c4ccccc4)C(C)=C([C@@H](OC(C)=O)C(=O)[C@]12C)C3(C)C [Prodrug 4a] ?
Result: 34

###

- Assay Details: octanol-water partition coefficient by microemulsion electrokinetic chromatography (MEEKC)
- Measurement Conditions: pH 7.00 running buffer, ± standard deviation (n = 3)
log Po/w values for the compounds below.
Please reply with the number alone, leaving off any unit.

Example entries begin here.
CCCCCCCCCCCC(=O)OC(C(=O)OC1CC2(O)C(OC(=O)c3ccccc3)C3C4(OC(C)=O)COC4CC(O)C3(C)C(=O)C(OC(C)=O)C(=C1C)C2(C)C)C(NC(=O)c1ccccc1)c1ccccc1 (stereo not drawn) [Prodrug 5b] ... 4.49
CCCCCC(=O)O[C@@H](C(=O)O[C@H]1C[C@@]2(O)[C@@H](OC(=O)c3ccccc3)[C@@H]3[C@]4(OC(C)=O)CO[C@@H]4C[C@H](O)[C@@]3(C)C(=O)[C@H](OC(C)=O)C(=C1C)C2(C)C)[C@@H](NC(=O)c1ccccc1)c1ccccc1 [Prodrug 5a] ... 4.45
CCCCCCCCCCCCCCCC(=O)O[C@H]1C[C@H]2OC[C@@]2(OC(C)=O)[C@H]2[C@H](OC(=O)c3ccccc3)[C@]3(O)C[C@H](OC(=O)[C@H](O)[C@@H](NC(=O)c4ccccc4)c4ccccc4)C(C)=C([C@@H](OC(C)=O)C(=O)[C@]12C)C3(C)C [Prodrug 4c, 7-palmitate-paclitaxel] ... 4.48
CCCCCCCCCCCC(=O)O[C@H]1C[C@H]2OC[C@@]2(OC(C)=O)[C@H]2[C@H](OC(=O)c3ccccc3)[C@]3(O)C[C@H](OC(=O)[C@H](O)[C@@H](NC(=O)c4ccccc4)c4ccccc4)C(C)=C([C@@H](OC(C)=O)C(=O)[C@]12C)C3(C)C [Prodrug 4b] ... 4.59

Ask: Which measured log Po/w value corresponds to CCCCCC(=O)O[C@H]1C[C@H]2OC[C@@]2(OC(C)=O)[C@H]2[C@H](OC(=O)c3ccccc3)[C@]3(O)C[C@H](OC(=O)[C@H](O)[C@@H](NC(=O)c4ccccc4)c4ccccc4)C(C)=C([C@@H](OC(C)=O)C(=O)[C@]12C)C3(C)C [Prodrug 4a] ?
Result: 4.43

Ask: Which measured log Po/w value corresponds to CCCCCCCCCCCCCCCC(=O)O[C@@H](C(=O)O[C@H]1C[C@@]2(O)[C@@H](OC(=O)c3ccccc3)[C@@H]3[C@]4(OC(C)=O)CO[C@@H]4C[C@H](O)[C@@]3(C)C(=O)[C@H](OC(C)=O)C(=C1C)C2(C)C)[C@@H](NC(=O)c1ccccc1)c1ccccc1 [Prodrug 5c, 2-palmitate-paclitaxel] ?
Result: 4.51
